Would you mind telling me the reported Activity of each entry?
- assay_system: UniProt P10635
- Sequence (P10635 whole entry): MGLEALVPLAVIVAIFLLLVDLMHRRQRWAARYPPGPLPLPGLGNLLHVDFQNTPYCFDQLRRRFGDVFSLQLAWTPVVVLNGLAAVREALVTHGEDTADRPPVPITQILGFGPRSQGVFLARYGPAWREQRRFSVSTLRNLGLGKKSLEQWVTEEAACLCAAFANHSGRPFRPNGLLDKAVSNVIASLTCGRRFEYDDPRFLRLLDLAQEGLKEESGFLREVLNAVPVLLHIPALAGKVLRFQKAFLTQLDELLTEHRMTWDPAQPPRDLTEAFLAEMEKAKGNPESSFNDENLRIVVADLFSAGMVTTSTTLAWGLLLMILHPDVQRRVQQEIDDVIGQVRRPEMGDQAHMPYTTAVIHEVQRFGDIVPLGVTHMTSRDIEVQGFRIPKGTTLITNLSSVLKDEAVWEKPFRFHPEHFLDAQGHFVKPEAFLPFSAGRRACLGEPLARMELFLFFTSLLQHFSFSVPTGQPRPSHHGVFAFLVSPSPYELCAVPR
- assay_remarks: Activity of human recombinant CYP2D6 assessed as enzyme contribution towards compound metabolism at 37 degC
- Type: ADME
Give bare numbers, in %.

Past entries and their recorded results:
{"line_notation": "O=C(NC1CCCCC1)c1nnc(CS(=O)(=O)c2ccccc2)o1", "Activity / %": 2.4}
{"line_notation": "O=C(NC1CCCCC1)c1nc(CS(=O)(=O)c2ccccc2)no1", "Activity / %": 0.1}
{"line_notation": "c1ccc(CN2CCN(Cc3nnc(-c4ccccc4)o3)CC2)cc1", "Activity / %": 1.7}

Quick batch: Activity for everything below.
1. Clc1cc(-c2nnc(CSc3nnc(-c4ccncc4)n3C3CC3)o2)ccn1
2. O=C(NCc1ccncc1)c1nnc(CS(=O)(=O)c2ccccc2)o1
3. c1ccc(CN2CCN(Cc3nc(-c4ccccc4)no3)CC2)cc1
4. O=C(NCc1ccncc1)c1nc(CS(=O)(=O)c2ccccc2)no1
5. c1cc(-c2nnc(C3CCCCC3)o2)ccn1
6. Clc1cc(-c2nc(CSc3nnc(-c4ccncc4)n3C3CC3)no2)ccn1
7. c1cc(-c2noc(C3CCCCC3)n2)ccn1

Solution:
1: 0; 2: 100; 3: 2.3; 4: 0.1; 5: 1.1; 6: 0; 7: 8.6
